Origin of measurements: PubChem BioAssay (NCI)

# assay-name: NCI Yeast Anticancer Drug Screen. Data for the sgs1 mgt1 strain (AID 161);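 note: 0% = growth of cultures given vehicle only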
# condition-description: S. cerevisiae sgs1 mgt1 strain, at 50.0 µM, stronger effect = higher value
The panel holds about 79,000 compounds, 15% with a hit somewhere; the sample as a whole holds those more often.
observation-type: growth inhibition (%)
The reply should contain only the number, in %.

-- ask # get_value(readout='growth inhibition', item= Cc1[nH]c2cc([N+](=O)[O-])ccc2c1C )
-- reply -10.1

-- ask # get_value(readout='growth inhibition', item= N#CC(CC(=O)NN)C(=O)NN (centres undefined) )
-- reply -21

-- ask # get_value(readout='growth inhibition', item= Cc1ccc(Cc2ccc(CCc3ccc(Cc4ccc(C)cc4)cc3)cc2)cc1 )
-- reply 18.6

-- ask # get_value(readout='growth inhibition', item= CCCCCCCCCCCC(=O)Nc1ccc(NC(C)=O)cc1 )
-- reply 22.6
